assay: Everolimus pharmacokinetic analysis in whole blood; settings: human, whole blood, oral, 10 mg
measured_quantity: concentration at 8 day

Please fill in: concentration at 8 day reported for CO[C@H]1C[C@@H]2CC[C@@H](C)[C@@](O)(O2)C(=O)C(=O)N2CCCC[C@H]2C(=O)O[C@H]([C@H](C)C[C@@H]2CC[C@@H](OCCO)[C@H](OC)C2)CC(=O)[C@H](C)/C=C(\C)[C@@H](O)[C@@H](OC)C(=O)[C@H](C)C[C@H](C)/C=C/C=C/C=C/1C = 0.0178 µg/mL

###

assay: Everolimus pharmacokinetic analysis in whole blood; details: human, whole blood, oral, 5 mg, Day 21 AUC0-24, 5 mg daily (n=12), whole blood
measured_quantity: AUC(0-t) (ng·h/mL)
Provide only the numeric value, understood in ng·h/mL.

For CO[C@H]1C[C@@H]2CC[C@@H](C)[C@@](O)(O2)C(=O)C(=O)N2CCCC[C@H]2C(=O)O[C@H]([C@H](C)C[C@@H]2CC[C@@H](OCCO)[C@H](OC)C2)CC(=O)[C@H](C)/C=C(\C)[C@@H](O)[C@@H](OC)C(=O)[C@H](C)C[C@H](C)/C=C/C=C/C=C/1C the molecule record lists AUC(0-t) as 205

###

assay: Everolimus pharmacokinetic analysis in whole blood; settings: human, whole blood, oral, 10 mg, Day 21 AUC0-24, 10 mg daily (n=7), whole blood
measured_quantity: AUC(0-t) (ng·h/mL)
Numbers only here, please. The scale is ng·h/mL.

Short answer for CO[C@H]1C[C@@H]2CC[C@@H](C)[C@@](O)(O2)C(=O)C(=O)N2CCCC[C@H]2C(=O)O[C@H]([C@H](C)C[C@@H]2CC[C@@H](OCCO)[C@H](OC)C2)CC(=O)[C@H](C)/C=C(\C)[C@@H](O)[C@@H](OC)C(=O)[C@H](C)C[C@H](C)/C=C/C=C/C=C/1C : AUC(0-t) was 506
